- target of assay: human Lck enzyme (Homo sapiens, UniProt P06239)
- Construct: purchased Carna Biosciences, Inc. 08-170
- Sequence (P06239 whole entry): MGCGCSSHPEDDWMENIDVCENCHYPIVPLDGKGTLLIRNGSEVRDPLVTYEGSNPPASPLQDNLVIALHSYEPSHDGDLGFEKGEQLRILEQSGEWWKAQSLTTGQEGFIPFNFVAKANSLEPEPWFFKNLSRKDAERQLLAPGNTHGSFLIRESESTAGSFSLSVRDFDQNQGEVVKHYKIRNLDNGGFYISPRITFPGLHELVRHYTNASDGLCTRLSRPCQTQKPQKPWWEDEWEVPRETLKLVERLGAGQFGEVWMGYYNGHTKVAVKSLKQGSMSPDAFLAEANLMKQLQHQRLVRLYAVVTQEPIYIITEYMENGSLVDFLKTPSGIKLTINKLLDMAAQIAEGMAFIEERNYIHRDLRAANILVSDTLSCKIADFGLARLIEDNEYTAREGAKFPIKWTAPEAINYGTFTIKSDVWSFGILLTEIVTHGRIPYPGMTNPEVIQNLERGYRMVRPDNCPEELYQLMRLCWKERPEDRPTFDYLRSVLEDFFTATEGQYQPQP
- protocol summary: Lck enzyme inhibitory activity (time-resolved fluorometry, biotinylated peptide phosphorylation)
- Format: biochemical
- conditions: biotinylated peptide phosphorylation, read-out: LCK_IC50
- Method: 3. Lck Enzyme Inhibitory Activity Lck inhibitory activity was determined based on activity of inhibiting phosphorylation reaction of a biotinylated peptide (EGPWLEEEEEAYGWMDF) using a human Lck enzyme (manufactured by Carna Biosciences, Inc., cat 08-170). The phosphorylated biotinylated peptide was detected by time-resolved fluorometry using an anti-phosphorylated tyrosine antibody conjugated to europium cryptate, and streptavidin conjugated to XL665, an allophycocyanin derivative. […]
Measured pIC50, listed per entry.
In simple prose, pIC50 is minus the logarithm base ten of a concentration in moles per litre.

# compound, target of assay, pIC50
measured = [
    ("Cc1cc(Oc2c(F)cccc2F)ncc1-n1ncc(C(=O)c2cc3cc(OCC(F)F)c(NS(=O)(=O)c4cccc(Cl)n4)cc3[nH]2)c1N [Example 5-1-572]", "human Lck enzyme (Homo sapiens, UniProt P06239)", 7.68),
    ("Cc1cc(Oc2ccccc2F)ncc1-n1ncc(C(=O)c2cc3cc(OC(F)F)c(NS(=O)(=O)C4CCOCC4)cc3[nH]2)c1N [Example 5-1-401]", "human Lck enzyme (Homo sapiens, UniProt P06239)", 7.39),
]

Value lookup for pIC50; key = Cc1cc(Oc2ccccc2F)ccc1-n1ncc(C(=O)c2cc3cc(F)c(NS(=O)(=O)N4CCOCC4)cc3[nH]2)c1N [Example 4-5-002]
7.64

Next: Cc1cc(Oc2ccccc2F)ccc1-n1ncc(C(=O)c2cc3cc(OC(F)F)c(N4CCCS4(=O)=O)cc3[nH]2)c1N [Example 4-25-002]
7.82

Next: Cc1cc(Oc2c(F)cccc2F)ncc1-n1ncc(C(=O)c2cc3cc(F)c(N(C4CCOCC4)S(C)(=O)=O)cc3[nH]2)c1N [Example 4-2-127]
8.43

Next: Cc1cc(Oc2ccccc2F)ncc1-n1ncc(C(=O)c2cc3cc(Cl)c(NS(C)(=O)=O)cc3[nH]2)c1N [Example 4-2-085]
8.12

Next: COc1cc2cc(C(=O)c3cnn(-c4cnc(Oc5c(F)cccc5F)cc4C)c3N)[nH]c2cc1NS(=O)(=O)CC(=O)N1CCCC1 [Example 4-10-017]
7.96

Next: Cc1cc2cc(C(=O)c3cnn(-c4cnc(Oc5ccccc5F)cc4C)c3N)[nH]c2cc1NS(=O)(=O)c1cccc2ccccc12 [Example 5-1-465]
6.29

Next: Cc1cnc(F)c(S(=O)(=O)Nc2cc3[nH]c(C(=O)c4cnn(-c5cnc(Oc6c(F)cccc6F)cc5C)c4N)cc3cc2C)c1 [Example 5-1-521]
6.74

Next: Cc1cc2cc(C(=O)c3cnn(-c4c(C)cc(Oc5cc(F)ccc5F)cc4F)c3N)[nH]c2cc1NS(C)(=O)=O [Example 4-2-057]
7.57

Next: Cc1cc(Oc2c(F)cccc2F)ncc1-n1ncc(C(=O)c2cc3cc(F)c(N4C(=O)N[C@@H](C(C)C)C4=O)cc3[nH]2)c1N [Example 5-1-431]
7.70

Next: Cc1cc(Oc2ccccc2F)ccc1-n1ncc(C(=O)c2cc3cc(OCC(F)F)c(NS(=O)(=O)N4CCOCC4)cc3[nH]2)c1N [Example 4-22-005]
7.70

Next: Cc1cc2cc(C(=O)c3cnn(-c4cnc(Oc5ccccc5F)cc4C)c3N)[nH]c2cc1NS(=O)(=O)c1cnc(N(C)C)nc1 [Example 5-1-577]
6.42

Next: COc1cc2cc(C(=O)c3cnn(-c4c(C)cc(Oc5ccccc5F)cc4F)c3N)[nH]c2cc1NS(C)(=O)=O [Example 4-1-006]
7.96

Next: Cc1cc(Oc2cccc(Cl)c2)cc(F)c1-n1ncc(C(=O)c2cc3cc(F)c(NS(C)(=O)=O)cc3[nH]2)c1N [Example 4-7-011]
7.01

Next: Cc1cc(Oc2cccc(F)c2F)cc(F)c1-n1ncc(C(=O)c2cc3cc(F)c(NS(C)(=O)=O)cc3[nH]2)c1N [Example 4-7-005]
7.35

Next: Cc1cc(Oc2ccccc2F)ccc1-n1ncc(C(=O)c2cc3cc(OCC(F)F)c(N4CCCS4(=O)=O)cc3[nH]2)c1N [Example 4-25-009]
7.74

Next: Cc1cc(Oc2cccc(F)c2)ncc1-n1ncc(C(=O)c2cc3cc(F)c(NS(C)(=O)=O)cc3[nH]2)c1N [Example 4-2-038]
7.40

Next: Cc1cc(Oc2ccccc2F)ccc1-n1ncc(C(=O)c2cc3cc(F)c(NS(=O)(=O)CC(=O)N4CCN(C(C)C)CC4)cc3[nH]2)c1N [Example 4-10-003, 2,2,2-trifluoroacetate]
8.31
